Origin of values: PubChem BioAssay

molecular target: Neurogenic locus notch homolog protein 3 (Homo sapiens) (UniProt Q9UM47); experiment: small molecules binding NOTCH3 protein – biochemical, 635/667 nm fluorescence, primary screen (AID 1096); settings: small-molecule microarray, 635 nm fluorescence, higher = more signal
Sequence (Q9UM47 whole entry, looked up): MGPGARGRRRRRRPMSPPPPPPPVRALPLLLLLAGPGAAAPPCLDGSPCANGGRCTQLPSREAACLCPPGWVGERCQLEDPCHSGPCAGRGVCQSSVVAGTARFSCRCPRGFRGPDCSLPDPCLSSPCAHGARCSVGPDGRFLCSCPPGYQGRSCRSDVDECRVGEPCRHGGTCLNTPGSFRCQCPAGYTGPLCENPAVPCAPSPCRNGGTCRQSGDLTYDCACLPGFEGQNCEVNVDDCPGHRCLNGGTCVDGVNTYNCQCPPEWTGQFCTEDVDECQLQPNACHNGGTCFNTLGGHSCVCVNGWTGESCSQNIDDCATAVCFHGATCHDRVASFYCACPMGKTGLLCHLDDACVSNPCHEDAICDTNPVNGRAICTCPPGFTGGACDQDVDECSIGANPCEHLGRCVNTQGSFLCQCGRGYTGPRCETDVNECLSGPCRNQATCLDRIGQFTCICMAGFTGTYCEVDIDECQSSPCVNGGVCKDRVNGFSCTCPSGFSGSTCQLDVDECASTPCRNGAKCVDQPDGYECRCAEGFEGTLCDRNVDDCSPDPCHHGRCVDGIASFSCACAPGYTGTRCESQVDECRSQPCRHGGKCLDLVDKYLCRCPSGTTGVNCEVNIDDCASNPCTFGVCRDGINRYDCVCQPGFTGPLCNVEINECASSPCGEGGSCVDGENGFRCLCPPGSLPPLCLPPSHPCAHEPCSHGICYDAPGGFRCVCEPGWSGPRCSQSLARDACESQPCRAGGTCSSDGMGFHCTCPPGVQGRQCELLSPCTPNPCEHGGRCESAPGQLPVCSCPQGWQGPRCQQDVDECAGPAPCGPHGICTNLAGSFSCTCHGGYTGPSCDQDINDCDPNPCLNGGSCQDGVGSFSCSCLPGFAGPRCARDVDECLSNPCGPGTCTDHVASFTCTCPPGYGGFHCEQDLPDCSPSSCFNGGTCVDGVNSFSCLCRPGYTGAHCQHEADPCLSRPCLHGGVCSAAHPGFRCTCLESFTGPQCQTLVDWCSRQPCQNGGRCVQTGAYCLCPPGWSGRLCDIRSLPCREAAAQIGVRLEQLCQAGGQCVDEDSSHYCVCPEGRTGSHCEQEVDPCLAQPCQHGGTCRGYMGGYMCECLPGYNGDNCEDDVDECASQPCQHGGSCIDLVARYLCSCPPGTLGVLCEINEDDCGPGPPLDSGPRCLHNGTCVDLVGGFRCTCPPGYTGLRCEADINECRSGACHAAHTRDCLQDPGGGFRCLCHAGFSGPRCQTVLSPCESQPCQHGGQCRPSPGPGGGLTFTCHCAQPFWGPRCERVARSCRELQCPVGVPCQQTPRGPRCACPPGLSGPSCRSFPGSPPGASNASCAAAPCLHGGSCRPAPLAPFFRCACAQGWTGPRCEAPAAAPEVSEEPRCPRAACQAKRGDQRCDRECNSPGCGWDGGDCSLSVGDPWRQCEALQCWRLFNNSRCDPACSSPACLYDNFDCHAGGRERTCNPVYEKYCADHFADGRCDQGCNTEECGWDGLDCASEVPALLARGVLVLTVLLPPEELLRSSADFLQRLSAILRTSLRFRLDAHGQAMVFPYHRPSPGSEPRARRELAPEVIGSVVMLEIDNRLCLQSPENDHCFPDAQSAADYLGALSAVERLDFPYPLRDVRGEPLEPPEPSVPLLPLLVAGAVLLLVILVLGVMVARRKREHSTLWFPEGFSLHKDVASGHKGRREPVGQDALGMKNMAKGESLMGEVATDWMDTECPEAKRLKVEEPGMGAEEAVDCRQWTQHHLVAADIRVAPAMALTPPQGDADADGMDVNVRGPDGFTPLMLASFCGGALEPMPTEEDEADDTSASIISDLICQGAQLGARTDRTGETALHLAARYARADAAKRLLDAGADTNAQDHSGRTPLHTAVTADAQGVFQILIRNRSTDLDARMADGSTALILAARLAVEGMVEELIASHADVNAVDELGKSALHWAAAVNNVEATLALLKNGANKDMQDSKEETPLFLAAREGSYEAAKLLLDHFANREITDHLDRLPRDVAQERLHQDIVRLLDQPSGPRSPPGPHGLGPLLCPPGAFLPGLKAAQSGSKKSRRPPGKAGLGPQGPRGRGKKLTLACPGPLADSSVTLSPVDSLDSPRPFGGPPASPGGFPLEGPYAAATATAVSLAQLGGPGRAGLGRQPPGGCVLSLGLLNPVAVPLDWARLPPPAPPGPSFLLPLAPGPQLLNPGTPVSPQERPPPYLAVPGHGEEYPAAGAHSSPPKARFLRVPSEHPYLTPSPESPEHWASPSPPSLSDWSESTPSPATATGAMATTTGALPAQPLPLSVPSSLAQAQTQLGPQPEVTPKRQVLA

| compound | composite z-score |
| --- | --- |
| COc1ccc(CCNC(=O)[C@@]2(C)c3ccccc3C(=O)N(Cc3ccccc3)[C@H]2c2ccc(CO)cc2)cc1 | 1.07 |
| COc1ccc([Si](C)(C)[C@@H]2[C@@H](CC(=O)N3Cc4ccccc4C[C@H]3CO)O[C@]3(C(=O)N(Cc4cccc(N5C(=O)COc6ccccc65)c4)c4ccccc43)[C@H]2C)cc1 | 1.14 |
| COc1cc2c(cc1O)C(c1ccc(CN3CCCC3)cc1)N(Cc1sc3ccccc3c1Cl)CC2 (stereo not drawn) | 0.202 |
| O=C1OCC=C[C@H]2OC34C=CCN(CCN5CCOCC5)C(=O)[C@H]3N(CCCCCCO)C(=O)[C@@H]4[C@@H]12 (stereo partly drawn) | -0.0123 |
| Cc1cc(C)c(C(O)C2C=CC3C(=O)NC(=O)C3N2Nc2ccccn2)c(C)c1 (stereo not drawn) | 0.525 |
| COCC1=C([C@H](O)CCc2ccccc2)[C@H](CO)[C@@H]2C(=O)N(Cc3ccccc3)C(=O)[C@@H]2C1 | 0.248 |
| C=C(C(=O)CC[C@H](OC(=O)c1cccnc1)c1ccccc1OCCO)C(C)C | 0.423 |
| CC(C)[C@H]1COC(=O)N1C(=O)[C@H]1[C@@H](c2ccccc2)N(c2ccccc2)O[C@@H]1C | 0.757 |
